Origin of the recorded values: patent US9113629B2

System: SETVI: green foxtail (Setaria viridis)
Test: Post-emergent Test III, herbicidal activity in wheat and barley
Assay type: in vivo
Conditions: Setaria viridis, post-emergence, 504 h; 140 g ai/ha; read-out: Visual Growth Reduction (%) 21 Days After Application SETVI
Protocol: Post-emergent Test III. […] A weighed amount, determined by the highest rate to be tested, of each test compound was placed in a 25 mL glass vial and was dissolved in 4 mL of a 97:3 v/v mixture of acetone and DMSO to obtain concentrated stock solutions. […]
quantity-measured: pest or weed control at 140 g/ha

Record excerpt, results attached:
smiles_data=COC(=O)c1nc(-c2ccc(Br)c(F)c2F)cc(N)c1Cl observed="0 to 29%"
smiles_data=Nc1cc(-c2ccc(Br)c(F)c2F)nc(C(=O)O)c1Cl observed="75 to 84%"
smiles_data=COC(=O)c1nc(-c2ccc(C#N)cc2)c(F)c(N)c1Cl observed="0 to 29%"
smiles_data=N#Cc1ccc(-c2nc(C(=O)O)c(Cl)c(N)c2F)cc1 observed="60 to 74%"

As a next step, examine the compound that follows.
# query: pest or weed control at 140 g/ha of entry `Nc1c(F)c(-c2ccc(I)cc2)nc(C(=O)O)c1Cl` 95 to 100%

----------
system: HORSS: barley, including spring and winter (Hordeum vulgare); experiment: Post-emergent Test III, herbicidal activity in wheat and barley; assay type: in vivo; details: Hordeum vulgare, post-emergence, 504 h; Table 9; 70 g ai/ha; post-emergent; 21 d; read-out: Visual Growth Reduction (%) 21 Days After Application HORSS
So I've got a bunch of compounds here, and I need their pest or weed control at 70 g/ha values.

Record excerpt, results attached:
smiles_data=COC(=O)c1nc(-c2ccc(Br)cc2)c(Cl)c(N)c1Cl observed="95 to 100%"
smiles_data=C=Cc1c(C(=O)O)nc(-c2ccc(Br)cc2)c(F)c1N observed="0 to 29%"
smiles_data=COC(=O)c1nc(-c2ccc(Br)cc2F)nc(N)c1OC observed="60 to 74%"
smiles_data=Nc1c(Cl)c(C(=O)O)nc(-c2ccc(Br)cc2)c1Cl observed="95 to 100%"

# query: pest or weed control at 70 g/ha of entry `C=Cc1c(C(=O)O)nc(-c2ccc(C#N)cc2)c(F)c1N` 45 to 59%

----------
tested on: KCHSC: kochia (Kochia scoparia); assay: Post-emergent Test III, herbicidal activity in wheat and barley; format: in vivo; settings: Bassia scoparia, post-emergence, 504 h; Table 9; 35 g ai/ha; post-emergent; 21 d; read-out: Visual Growth Reduction (%) 21 Days After Application KCHSC
quantity-measured: pest or weed control at 35 g/ha

Record excerpt, results attached:
smiles_data=COc1c(N)nc(-c2ccc(Br)cc2F)nc1C(=O)O observed="75 to 84%"
smiles_data=COC(=O)c1nc(-c2ccc(Br)cc2)c(Cl)c(N)c1Cl observed="85 to 94%"
smiles_data=C#Cc1ccc(-c2nc(C(=O)O)c(C=C)c(N)c2F)cc1 observed="0 to 29%"

Okay, here is my list. What is pest or weed control at 35 g/ha for each of these?
1. C#Cc1ccc(-c2nc(N)c(OC)c(C(=O)O)n2)c(F)c1F
2. COc1c(N)nc(-c2ccc(C(F)(F)F)c(F)c2F)nc1C(=O)O

["0 to 29%", "0 to 29%"]

----------
Test system: Key Broadleaf Weed and Crop Species
Assay: Post-emergent Test II herbicidal activity (Table 5)
Type: in vivo
Conditions: post-emergence, 336 h; HELAN: sunflower (Helianthus annuus); application rate 140 g ai/ha; 14 days after application; read-out: Visual Growth Reduction (%) 14 Days After Application, HELAN
From the text: Post-emergent Test II: Seeds or nutlets of the desired test plant species were planted in Sun Gro Metro-Mix® 360 planting mixture, which typically has a pH of 6.0 to 6.8 and an organic matter content of about 30 percent, in plastic pots with a surface area of 64 square centimeters. When required to ensure good germination and healthy plants, a fungicide treatment and/or other chemical or physical treatment was applied. […]
So I've got a bunch of compounds here, and I need their pest or weed control at 140 g/ha values.

Record excerpt, results attached:
smiles_data=COC(=O)c1nc(-c2ccc(Br)cc2)cc(N)c1Cl observed="95 to 100%"
smiles_data=C=Cc1c(C(=O)O)nc(-c2ccc(Cl)c(F)c2)c(F)c1N observed="95 to 100%"

As a next step, examine the compound that follows.
# query: pest or weed control at 140 g/ha of entry `C#Cc1ccc(-c2nc(C(=O)O)c(Cl)c(N)c2F)c(F)c1` 95 to 100%

----------
test system: Key Grass and Sedge Weeds as well as Grass Crops; test: Post-emergent Test II herbicidal activity (Table 6); type: in vivo; conditions: post-emergence, 336 h, SORVU: grain sorghum (Sorghum vulgare), application rate 70 g ai/ha, read-out: Visual Growth Reduction (%) 14 Days After Application, SORVU
quantity-measured: pest or weed control at 70 g/ha

smiles_data=Cc1c(-c2ccc(I)c(F)c2)nc(C(=O)O)c(Cl)c1N observed="60 to 74%"
smiles_data=Nc1c(Cl)c(C(=O)O)nc(-c2ccc(I)c(F)c2)c1Cl observed="85 to 94%"
smiles_data=COC(=O)c1nc(-c2ccc(I)cc2)c(C)c(N)c1Cl observed="60 to 74%"
smiles_data=COC(=O)c1nc(-c2cc(F)c(C(F)(F)F)cc2F)c(F)c(N)c1Cl observed="75 to 84%"
smiles_data=COC(=O)c1nc(-c2cc(F)c(C(F)F)cc2F)c(F)c(N)c1Cl observed="60 to 74%"

Okay, here is my list. What is pest or weed control at 70 g/ha for each of these?
1. COC(=O)c1nc(-c2cc(F)c(OC(F)F)cc2F)cc(N)c1Cl
2. COc1c(N)nc(-c2ccc(Br)c(F)c2)nc1C(=O)O
3. COC(=O)c1nc(-c2ccc(C(N)=O)cc2)c(F)c(N)c1Cl
4. COc1c(N)nc(-c2cc(F)c(Br)cc2F)nc1C(=O)O
5. COC(=O)c1nc(-c2ccc(C#N)c(F)c2)c(C)c(N)c1Cl
6. COC(=O)c1nc(-c2ccc(C(F)(F)F)c(F)c2)cc(N)c1Cl
7. C=Cc1c(C(=O)OC)nc(-c2ccc(C(F)(F)F)c(F)c2)c(F)c1N

1: 0 to 29%; 2: 85 to 94%; 3: 0 to 29%; 4: 60 to 74%; 5: 0 to 29%; 6: 45 to 59%; 7: 0 to 29%

----------
system: Key Grass and Sedge Weeds as well as Grass Crops; assay: Post-emergent Test II herbicidal activity (Table 6); format: in vivo; settings: post-emergence, 336 h, DIGSA: crabgrass (Digitaria sanguinalis), application rate 140 g ai/ha, read-out: Visual Growth Reduction (%) 14 Days After Application, DIGSA
quantity-measured: pest or weed control at 140 g/ha

smiles_data=Cc1c(-c2ccc(C(F)(F)F)c(F)c2)nc(C(=O)O)c(Cl)c1N observed="45 to 59%"

Okay, here is my list. What is pest or weed control at 140 g/ha for each of these?
1. C=Cc1c(C(=O)OC)nc(-c2ccc(C(F)(F)F)c(F)c2F)c(F)c1N
2. C=Cc1c(C(=O)OC)nc(-c2ccc(Br)cc2)c(F)c1N

1. 0 to 29%
2. 0 to 29%

----------
system: Key Broadleaf Weed and Crop Species; assay: Post-emergent Test II herbicidal activity (Table 5); type: in vivo; details: post-emergence, 336 h; EPHHL: wild poinsettia (Euphorbia heterophylla); 140 g ai/ha; post-emergent; 14 days after application; read-out: Visual Growth Reduction (%) 14 Days After Application EPHHL
So I've got a bunch of compounds here, and I need their pest or weed control at 140 g/ha values.

Record excerpt, results attached:
smiles_data=Nc1cc(-c2ccc(Br)c(F)c2)nc(C(=O)O)c1Cl target_or_system="Key Broadleaf Weed and Crop Species" quantity_measured="pest or weed control at 140 g/ha" observed="95 to 100%"
smiles_data=C=Cc1c(C(=O)O)nc(-c2ccc(C#N)cc2)c(F)c1N target_or_system="Key Broadleaf Weed and Crop Species" quantity_measured="pest or weed control at 140 g/ha" observed="95 to 100%"
smiles_data=COC(=O)c1nc(-c2cc(F)c(Br)cc2F)cc(N)c1Cl target_or_system="Key Broadleaf Weed and Crop Species" quantity_measured="pest or weed control at 140 g/ha" observed="95 to 100%"
smiles_data=COC(=O)c1nc(-c2ccc(C#N)cc2F)c(F)c(N)c1Cl target_or_system="Key Broadleaf Weed and Crop Species" quantity_measured="pest or weed control at 140 g/ha" observed="95 to 100%"
smiles_data=Nc1c(Cl)c(C(=O)O)nc(-c2ccc(I)c(F)c2)c1Cl target_or_system="Key Broadleaf Weed and Crop Species" quantity_measured="pest or weed control at 140 g/ha" observed="60 to 74%"

Okay, here is my list. What is pest or weed control at 140 g/ha for each of these?
1. Nc1c(Cl)c(C(=O)O)nc(-c2ccc(I)cc2)c1Cl
2. COc1c(N)nc(-c2ccc(C(F)(F)F)c(F)c2)nc1C(=O)O
3. C=Cc1c(C(=O)O)nc(-c2ccc(Br)cc2)c(F)c1N
4. COC(=O)c1nc(-c2ccc(C#N)cc2)nc(N)c1OC
5. COC(=O)c1nc(-c2cc(F)c(C#N)cc2F)c(F)c(N)c1Cl
6. Nc1c(F)c(-c2cc(F)c(Br)cc2F)nc(C(=O)O)c1Cl
7. C=Cc1c(N)nc(-c2ccc(C(F)(F)F)c(F)c2)nc1C(=O)OC
8. Cc1c(-c2ccc(I)cc2)nc(C(=O)O)c(Cl)c1N

1: 45 to 59%; 2: 95 to 100%; 3: 95 to 100%; 4: 95 to 100%; 5: 60 to 74%; 6: 95 to 100%; 7: 60 to 74%; 8: 0 to 29%
